Test system: U251 CNS
method.notes: NCI-60 one-dose screen, 48 h (100 = growth as untreated, 0 = no growth, -100 = all killed)
measurement.conditions: 10 µM unless noted
The panel holds about 83,000 compounds, 20% with a hit somewhere; the sample as a whole holds those more often.
In plain terms, low growth, meaning strictly below 90%, gives True, and everything else gives False.

Some solved cases for reference:
Cc1ccc(-c2nn(C)c(=O)c3noc(-c4ccc(C)cc4)c23)cc1 = True
COc1ccc2c(c1OC)C(=O)O[C@H]2[C@H]1c2c(cc3c(c2OC)OCO3)CCN1C = False
O=c1c2cc(C(F)(F)F)ccc2sc2c(NCCCNCCO)nc3ccccc3c12 = True

Would you kindly look at the next entry?
Query :: I'd appreciate it if you could check whether CC(=O)OC[C@H]1OC(Sc2sc(C(=O)c3ccc(Br)cc3)c(N)c2-c2nc3ccccc3s2)[C@H](OC(C)=O)[C@@H](OC(C)=O)[C@H]1OC(C)=O (some centres undefined) has growth smaller than 90%.
Result :: False

----------
Test system: COLO 205 colon
method.notes: NCI-60 one-dose screen, 48 h (100 = growth as untreated, 0 = no growth, -100 = all killed)
measurement.conditions: 10 µM unless noted
Experimental: Cells are grown in 96 well plates and exposed to the test compound for 48 hours. Compounds are tested at a single concentration, which is 10^-5 M for most compounds. The reported endpoint is percent growth (GI% or GIPRCNT), where numbers from 0 - 100% represent growth inhibition, and numbers from -100% - 0 represent cell death. For example, a value of 40 represents 60% growth inhibition. A value of 0 means no net growth occurred over the course of the experiment. […]
This is part of a sample that, as a whole, favours compounds with a hit. Of some 83,000 tested, about 20% had one in any assay.
Consider the following compounds and their measured growth readings.
Write it as a number; the unit % goes unstated.

See these solved cases before continuing.
O=c1ccn(Cc2cn(-c3c4ccccc4nc4ccccc34)nn2)c(=O)[nH]1 = 108
Clc1ccc(C(/C=C/c2sc(Cl)nc2Cl)=N/Nc2cc(Cl)cc(Cl)c2)cc1 = 118

Query :: # value lookup — system COLO 205 colon, readout growth, item `COc1cc(C(=O)/C=C/c2c(Cl)nc3sccn23)cc(OC)c1OC`
Result :: 104

Query :: Param readout = growth; param system = COLO 205 colon; param query = `COc1ccc(-c2nc(NCCO)[nH]c(=O)c2C#N)cc1` ; response: value
Result :: 101

Query :: Find the measured growth: item `O=c1ccc(N=Nc2ccccc2)ccc1Cl` , target or system COLO 205 colon.
Result :: 68.4

Query :: Requested read-out growth, target or system COLO 205 colon, entry `COc1cc(/C=C/c2c(C(C)=O)c(C)nc3ccccc23)cc(OC)c1OC`
Result :: 19

Query :: Identify the measured growth of `O=[N+]([O-])c1ccc(Oc2nc(Nc3ccc(O[C@H]4CO[C@H]5[C@@H]4OC[C@@H]5O)c(Cl)c3)ncc2F)c(Cl)c1` for COLO 205 colon.
Result :: 33.3

----------
Test system: OVCAR-3 ovarian
method.notes: NCI-60 one-dose screen, 48 h
measurement.conditions: 10 µM unless noted
About 83,000 compounds went through this panel and 20% of them were active in at least one assay; those are over-represented in the sample as a whole. Activity calls are given as the source filed them. The calls were made as follows: active = growth percent below 10; inactive = the rest.
Log the outcome using a class from active, inactive

Sample answers from the record:
CCOC(=O)c1cn2ncnc(Oc3ccc(NC(=O)NCCN4CCN(C)CC4)c(Cl)c3)c2c1C = inactive
Cc1ncc(C(=O)Nc2ccc(CN3CCN(C)CC3)c(C(F)(F)F)c2)cc1C#Cc1ccc(N)nc1 = inactive
Cn1cc(C(=O)c2nc(-c3cn(C)c4ccc(F)cc34)no2)c2cc(F)ccc21 = inactive
Cc1cccc(NC2=C(Cl)C(=O)c3nc(C)ccc3C2=O)c1 = active
O=C1COCCN1c1ccc(NCc2cn(C(=O)c3ccc(Cl)cc3)c3ccccc23)cc1 = inactive
Cc1nc(/N=C(\N)NC(=O)Nc2cccc(Cl)c2)sc1C = inactive

Query :: Look up the recorded call for CNc1nc2c(s1)C(c1cc(F)ccc1F)CC(=O)N2 (stereo unspecified) in this test.
Result :: inactive

Query :: Give the logged outcome of this assay for the following compound: COc1cc(C2CC(c3cccc(Br)c3)=NN2C(C)=O)cc(OC)c1OC (stereo unspecified)
Result :: active

Query :: Check the results log: what was the call for `O=C(O)c1cn(C2CC2)c2cc(N3CCN(C(=O)Nc4nc(-c5ccccc5)cs4)CC3)c(F)cc2c1=O` ?
Result :: active

----------
Listed here: items and their measured growth.
Tested on: NCI-H460 lung
method.notes: NCI-60 one-dose screen, 48 h (100 = growth as untreated, 0 = no growth, -100 = all killed)
measurement.conditions: 10 µM unless noted
The panel holds about 83,000 compounds, 20% with a hit somewhere; the sample as a whole holds those more often.
Numeric only. Scale: %

Consider the reported growth for these molecules:
Cn1cc(-c2ccc3cc(-c4ccc(CC(=O)Nc5cc(C(C)(C)C)nn5C)cc4)cnc3c2)cn1 = 9.41
CCC(C)(c1cc(C(C)(C)C)c(O)c(C(C)(C)C)c1)c1cc(C(C)(C)C)c(O)c(C(C)(C)C)c1 = 106
COc1ccc(N)c(N)c1 = 105
Cc1nc(/N=C(\N)NC(=O)Nc2cccc(Cl)c2)sc1C = 66
COc1ccc(S(=O)(=O)n2cc(C3OC(c4cc(OC)c(OC)c(OC)c4)=NN3C(C)=O)c3ccccc32)cc1OC (stereo not given) = 97.1
COc1ccc(-c2nc(NCCO)[nH]c(=O)c2C#N)cc1 = 112
O=c1c2cccc(Cl)c2sc2c(NCCCNCCO)nc3ccccc3c12 = -86.2
CSc1nc2ccc(C)cc2cc1/C=N/O = 91.1

Query :: // returns reported growth for input `O=c1c2cc(C(F)(F)F)ccc2sc2c(NCCCNCCO)nc3ccccc3c12`
Result :: -82.3

Query :: # get_value(readout='growth', item= `N#Cc1c(-c2ccc(Cl)cc2)nc2c(c(-c3ccccc3)nn2-c2ccccc2)c1-c1ccc(O)cc1` )
Result :: 25.1

----------
Test system: SR leukemia
method.notes: NCI-60 one-dose screen, 48 h (100 = growth as untreated, 0 = no growth, -100 = all killed)
measurement.conditions: 10 µM unless noted
The panel holds about 83,000 compounds, 20% with a hit somewhere; the sample as a whole holds those more often.
Below, each entry is listed alongside its reported growth.
Your answer should be a plain number; it is taken to be in %.

The cases that follow already have their growth on record.
O=C(Nc1ccc(Cl)cc1F)c1cc(Cl)ccc1O = -21.2
COc1ccc(C(=O)COC(=O)[C@H](C[Se][Se]C[C@H](NC(=O)c2ccc(Br)cc2F)C(=O)OCC(=O)c2ccc(OC)cc2)NC(=O)c2ccc(Br)cc2F)cc1 = -17.1
COc1ccc2c(c1)C(C)Cc1c(ncnc1-n1c(C)nc3ccccc31)N2C (stereo not drawn) = 4.92

Query :: I'd like to know its growth. The compound in question is `C/C(=C(/c1ccccc1)c1ccc(N2C(=O)c3cccc4c(N5CCN(C)CC5)ccc(c34)C2=O)cc1)c1ccccc1`
Result :: -9.19

Query :: State the recorded growth for this entry: CN1C(=C2C(=O)OC(C)(C)OC2=O)CCC1C(=O)NCc1ccc(Cl)cc1Cl (stereo not drawn)
Result :: 94.7

Query :: Entry `CN(C)CCS(=O)(=O)Nc1cc(-c2ccc3ncc(C#N)c(Nc4ccc(F)c(Cl)c4)c3c2)cnc1Cl` : reported growth = ?
Result :: -12.5

Query :: Recorded growth of `CCOC(=O)Nc1ccc(-c2nc(-c3cccc(OCCN4CCOCC4)c3)c(-c3ccnc(Br)c3)[nH]2)cc1` , please.
Result :: -12.9

Query :: Need growth of `CCCCNC(=O)Oc1ccc(/C(=C(\C)c2ccc(Cl)cc2)c2ccc(OCCN(CC)CC)cc2)cc1` , thanks.
Result :: 3.33

----------
System: RXF 393 renal
method.notes: NCI-60 one-dose screen, 48 h (100 = growth as untreated, 0 = no growth, -100 = all killed)
measurement.conditions: 10 µM unless noted
About 83,000 compounds went through this panel and 20% of them were active in at least one assay; those are over-represented in the sample as a whole.
Each entry below carries its recorded growth.
Supply the numeric figure in %, leaving out any unit text.

Query :: Request: growth, test system RXF 393 renal, entry `CCOC(=O)Cn1c(=O)c2c(c3ccccc3n2C)n2nnc(-c3ccccc3)c12`
Result :: 108

Query :: Request body: readout growth, system RXF 393 renal, query `O=C1c2cccc3cccc(c23)C(=O)N1Nc1nc(NC2CCCCC2)nc(N2CCOCC2)n1` . Return the value.
Result :: 109

Query :: Give RXF 393 renal growth for `NCCNc1nc2ccccc2c2c(=O)c3cccc(F)c3sc12`
Result :: 83.3

Query :: # returns recorded growth (system: RXF 393 renal) for `COc1ccc(/C=C2\Oc3cc(OCCN4CCC(Cc5ccccc5)CC4)ccc3C2=O)cc1OC`
Result :: 48
